Data provenance: PubChem BioAssay AID1159580

Experiment: chemical genetic growth profiling, strain panel (AID 1159580);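 further: tested at 20 µM; growth read once vehicle control cultures reached saturation at 30 °C; 1 = growth at the plate median or of vehicle wells; lower values mean less growth of the strain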
Details: S. cerevisiae deletion strains, growth OD, locus YHR079C, strain IRE1, active compounds read low
About 2,000 (36%) of roughly 5,500 compounds were called active. Inconclusive results (about 18%) are left out. This is one part of the list.
Parameter: normalized growth

- Compound: "C[C@@H](N)CO"
  Parameter: "normalized growth"
  Result: 0.974
- Compound: "O=C(O)c1ccccc1OP(=O)(O)O"
  Parameter: "normalized growth"
  Result: 0.95
- Compound: "Cc1c(Cl)cccc1NC(=S)N1CCCN(c2nc3ccc(Cl)cc3s2)CC1"
  Parameter: "normalized growth"
  Result: 0.7
- Compound: "CCC(C(N)=O)c1ccccc1 (stereo not given)"
  Parameter: "normalized growth"
  Result: 0.992
- Compound: "CC(C)(C)C1=NN(c2nc3ccc(Cl)cc3s2)C(=O)C1"
  Parameter: "normalized growth"
  Result: 0.111
- Compound: "CNC1(C)C2CCC(C2)C1(C)C (stereo not given)"
  Parameter: "normalized growth"
  Result: 0.941
- Compound: "CC(C(=O)O)c1ccc2c(c1)[nH]c1ccc(Cl)cc12 (stereo not given)"
  Parameter: "normalized growth"
  Result: 0.369
- Compound: "C=CC(=O)N1CCc2cc([N+](=O)[O-])ccc21"
  Parameter: "normalized growth"
  Result: 0.255
- Compound: "S=C=NCc1ccccc1"
  Parameter: "normalized growth"
  Result: 0.181
- Compound: "CCCCCC(=O)O[C@]1(C(C)=O)CCC2C3CCC4=CC(=O)CC[C@]4(C)C3CC[C@@]21C (stereo not given in full)"
  Parameter: "normalized growth"
  Result: 0.976
- Compound: "CCCCCCCCCCCCC[N+](C)(C)Cc1ccccc1"
  Parameter: "normalized growth"
  Result: 0.111
- Compound: "Cc1ccc2c(c1)CC[C@H]1CC(=O)CC[C@]21C"
  Parameter: "normalized growth"
  Result: 0.973
- Compound: "CCCCCC(C)N (stereo not given)"
  Parameter: "normalized growth"
  Result: 0.99
- Compound: "C[n+]1ccccc1/C=N\\O"
  Parameter: "normalized growth"
  Result: 0.987
- Compound: "CC(C)(C)CC(C)(C)c1ccc(OCCOCC[N+](C)(C)Cc2ccccc2)cc1"
  Parameter: "normalized growth"
  Result: 0.167
- Compound: "C=CC1=C(C(=O)O)N2C(=O)[C@@H](NC(=O)/C(=N/O)c3csc(N)n3)[C@H]2SC1"
  Parameter: "normalized growth"
  Result: 0.975
- Compound: "O=C(Nc1cc(Cl)cc(Cl)c1)Nc1cc(-c2ccco2)[nH]n1"
  Parameter: "normalized growth"
  Result: 0.119
- Compound: "Cc1cc(OC(=O)N2CCCCC2)c(C(C)C)cc1[N+](C)(C)C"
  Parameter: "normalized growth"
  Result: 1.01
- Compound: "N#C/C(=N/Nc1ccccc1Cl)S(=O)(=O)c1ccc(Cl)cc1"
  Parameter: "normalized growth"
  Result: 0.955
- Compound: "CC(=O)O[C@]1(C(C)=O)CCC2C3C[C@H](C)C4=CC(=O)CC[C@]4(C)C3CC[C@@]21C (stereo not given in full)"
  Parameter: "normalized growth"
  Result: 0.98
- Compound: "Cn1cncc1S(=O)(=O)/C(C#N)=C/c1ccccc1Sc1ccc(Cl)cc1"
  Parameter: "normalized growth"
  Result: 0.668
- Compound: "C/C(=N/NC(N)=S)c1ccccn1"
  Parameter: "normalized growth"
  Result: 0.779
- Compound: "C[CH2][Hg][S]c1ccccc1C(=O)O"
  Parameter: "normalized growth"
  Result: 0.123
- Compound: "COc1ccc(-c2coc3c(OC)c(OC)cc(O)c3c2=O)cc1"
  Parameter: "normalized growth"
  Result: 0.925
- Compound: "CC(=O)O[C@]1(C(C)=O)CCC2C3C=C(C)C4=CC(=O)CCC4(C)C3CCC21C (stereo not given in full)"
  Parameter: "normalized growth"
  Result: 0.958
